# Experiment Summary: NCI Yeast Anticancer Drug Screen. Data for the bub3 strain (AID 167)
# Condition Set: S. cerevisiae bub3 mutant strain, at 11.0 µM
The panel holds about 79,000 compounds, 15% with a hit somewhere; the sample as a whole holds those more often. The source made the active and inactive calls. Cut-off read from the data, not from the text of the source: active = growth inhibition above about 70%; inactive = the rest.
Assign a class; possible classes are 1 = active, 0 = inactive

Assay outcome for CC(=O)N/N=C/C(C)(C)C(C)(C)/C=N/NC(C)=O : what was it?
0

C[C@H](CCC(=O)NN)[C@H]1CC[C@H]2[C@@H]3CC[C@@H]4C[C@H](O)CC[C@]4(C)[C@H]3CC[C@]12C , same question.
0

Cc1cc(N=Nc2ccc(S(=O)(=O)[O-])cc2)cc(C(=O)[O-])c1[O-].NC1CCCCC1N.[Na+].[Pt+4] , same question.
1

CC(=O)Nc1ccc(SC(C)=O)cc1 , same question.
0

c1ccc2c(c1)sc1nc3ccncc3nc12 , same question.
0

CCCCCCCCC/C=C/C=C/C(=O)NCC(=O)NC1C(O)C(O)C(Nc2ncnc3nc[nH]c23)OC1C(O)CO (stereo unspecified) , same question.
0
